# test summary: Drug level in Sprague-Dawley rat plasma at 300 umol/kg, sc after 0.5 hrs
# Type: ADME, organism-based
# assay context: Sprague-Dawley, plasma, 300 umol/kg
Reported concentration at 0.5 h values follow for various compounds
// return numeric value only (unit: µM, not printed)

Request the reported concentration at 0.5 h associated with O=C(O)[C@H]1CSC(c2ccc(O)cc2O)=N1 209

Requested read-out: concentration at 0.5 h. Entry: COc1ccc(O)c(C2=N[C@@](C)(C(=O)O)CS2)c1 803

Which concentration at 0.5 h is listed for C[C@]1(C(=O)O)CSC(c2ccc(O)cc2O)=N1 ? 92

---

# test summary: Partition coefficient, log P of the compound
# Type: physicochemical
# assay context: octanol/water
Measured logP accompanies every entry in the list below.
// no unit string in output, number only

These recorded examples may help you get a feel for the data.
- compound string: "COc1ccc(C2=N[C@@H](C(=O)O)CS2)c(O)c1OC"
  logP: -1.28
- compound string: "COc1ccc(C2=N[C@@](C)(C(=O)O)CS2)c(O)c1OC"
  logP: -0.95
- compound string: "O=C(O)[C@H]1CSC(c2cc(O)ccc2O)=N1"
  logP: -1.52
- compound string: "COc1ccc(O)c(C2=N[C@@](C)(C(=O)O)CS2)c1"
  logP: -0.61
- compound string: "C[C@]1(C(=O)O)CSC(c2cc(O)ccc2O)=N1"
  logP: -1.14

We next turn to a different compound, shown below.
Endpoint output: logP of COc1ccc(O)c(C2=N[C@@H](C(=O)O)CS2)c1 . Value? -0.81
